// provenance: patent US20220267421A1

Let's look at some binders and their measured Emax (MFI).
Molecular target: T1, cell surface human mesothelin (MSLN) (human, UniProt Q13421 296-598)
T1 construct: whole, on cells; also called cell surface MSLN
T1 sequence (Q13421 other isoform, or with tags, fused parts or gaps limits assumed): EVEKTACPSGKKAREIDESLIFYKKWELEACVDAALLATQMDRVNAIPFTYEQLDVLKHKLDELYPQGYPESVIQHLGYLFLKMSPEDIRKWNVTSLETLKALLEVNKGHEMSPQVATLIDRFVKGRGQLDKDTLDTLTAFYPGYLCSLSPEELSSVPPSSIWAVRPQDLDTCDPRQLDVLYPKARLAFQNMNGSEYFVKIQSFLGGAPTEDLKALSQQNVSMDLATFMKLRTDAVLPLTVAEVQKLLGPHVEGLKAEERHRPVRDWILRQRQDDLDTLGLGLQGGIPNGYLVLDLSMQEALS
Experiment: flow cytometry, NCI-H226 cells
# number then unit; no other words

Exercise: Look up and state reported Emax (MFI) for FS22-053-008-AA/FS28-256-024 mAb^2 (bispecific antibody, human IgG1, kappa, L234A L235A, V domains shown) VH: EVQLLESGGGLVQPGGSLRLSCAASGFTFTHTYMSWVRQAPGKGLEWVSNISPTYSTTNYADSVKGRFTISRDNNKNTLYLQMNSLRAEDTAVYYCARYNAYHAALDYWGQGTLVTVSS VL: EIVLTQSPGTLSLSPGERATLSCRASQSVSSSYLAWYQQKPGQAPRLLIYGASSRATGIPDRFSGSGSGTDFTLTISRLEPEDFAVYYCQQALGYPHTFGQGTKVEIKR
Key: 813000 MFI

Exercise: Look up and state reported Emax (MFI) for FS22-053-008-AA/FS28-256-005 mAb^2 (bispecific antibody, human IgG1, kappa, L234A L235A, V domains shown) VH: EVQLLESGGGLVQPGGSLRLSCAASGFTFTETYMSWVRQAPGKGLEWVSNISPTYSTTNYADSVKGRFTISRDNSKNTLYLQMNSLRAEDTAVYYCARYNSYQGGLDYWGQGTLVTVSS VL: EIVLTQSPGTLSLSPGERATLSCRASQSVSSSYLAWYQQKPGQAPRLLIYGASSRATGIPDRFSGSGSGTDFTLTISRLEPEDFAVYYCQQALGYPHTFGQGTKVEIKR
Key: 760000 MFI

Exercise: Look up and state reported Emax (MFI) for FS22-053-008-AA/FS28-256-001 mAb^2 (bispecific antibody, human IgG1, kappa, L234A L235A, V domains shown) VH: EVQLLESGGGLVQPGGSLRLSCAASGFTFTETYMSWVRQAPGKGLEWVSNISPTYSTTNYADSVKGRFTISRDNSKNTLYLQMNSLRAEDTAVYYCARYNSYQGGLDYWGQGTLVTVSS VL: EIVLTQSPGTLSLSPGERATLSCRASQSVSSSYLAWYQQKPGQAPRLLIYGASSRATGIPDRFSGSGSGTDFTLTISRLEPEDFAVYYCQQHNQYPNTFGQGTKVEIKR
Key: 703000 MFI

Exercise: Look up and state reported Emax (MFI) for FS22-053-008-AA/FS28-024-060 mAb^2 (bispecific antibody, human IgG1, kappa, L234A L235A, V domains shown) VH: EVQLLESGGGLVQPGGSLRLSCAASGFTLSYSSMSWVRQAPGKGLEWVSFITPSTGYTHYADSVKGRFTISRDNSKNTLYLQMNSLRAEDTAVYYCARRALWFDYWGQGTLVTVSS VL: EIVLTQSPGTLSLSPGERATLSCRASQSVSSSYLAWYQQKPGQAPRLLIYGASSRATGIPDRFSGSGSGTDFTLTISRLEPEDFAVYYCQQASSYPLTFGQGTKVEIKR
Key: 1.01e+06 MFI

Exercise: Look up and state reported Emax (MFI) for FS22-053-008-AA/FS28-256-027 mAb^2 (bispecific antibody, human IgG1, kappa, L234A L235A, V domains shown) VH: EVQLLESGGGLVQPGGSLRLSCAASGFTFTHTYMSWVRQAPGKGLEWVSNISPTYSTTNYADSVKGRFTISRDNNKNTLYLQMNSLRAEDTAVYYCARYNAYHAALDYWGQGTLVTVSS VL: EIVLTQSPGTLSLSPGERATLSCRASQSVSSSYLAWYQQKPGQAPRLLIYGASSRATGIPDRFSGSGSGTDFTLTISRLEPEDFAVYYCQQTVPYPYTFGQGTKVEIKR
Key: 987000 MFI

Exercise: Look up and state reported Emax (MFI) for FS22-053-008-AA/FS28-024-053 mAb^2 (bispecific antibody, human IgG1, kappa, L234A L235A, V domains shown, also called FS28-024-53) VH: EVQLLESGGGLVQPGGSLRLSCAASGFTLSYSSMSWVRQAPGKGLEWVSFITPSTGYTHYADSVKGRFTISRDNSKNTLYLQMNSLRAEDTAVYYCARRALVFDYWGQGTLVTVSS VL: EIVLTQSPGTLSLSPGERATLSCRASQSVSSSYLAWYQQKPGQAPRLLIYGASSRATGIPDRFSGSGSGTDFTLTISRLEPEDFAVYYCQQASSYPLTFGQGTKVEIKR
Key: 914000 MFI
